Known TGI of a selection of molecules
# Test system: SK-MEL-28 melanoma
# Procedure text: NCI tumour cell line growth inhibition, 48 h
Property name: TGI

>>> recorded_value("N#C[S-].[Nd+3].c1cnc2c(c1)ccc1cccnc12.c1cnc2c(c1)ccc1cccnc12.c1cnc2c(c1)ccc1cccnc12")
"32.1 µM"
>>> recorded_value("COC(=O)C1=C(O)c2cc(OC)c(OC)c(OC)c2[C@H](c2cc(OC)c(OC)c(OC)c2)C1C(=O)OC (stereo not given in full)")
"> 100 µM"
>>> recorded_value("Nc1nc(N)c(N=O)c(Nc2ccc(O)cc2)n1")
"> 100 µM"
>>> recorded_value("O=c1cccccc1NCCOCCNc1cccccc1=O")
"> 100 µM"
>>> recorded_value("O=C1CCCCC1CN1CCCC1 (stereo not given)")
"> 100 µM"

Entry source: PubChem BioAssay (NCI)
